# Test system: Escherichia coli TOP10
# experimental-details: shrunken log2 fold change of peptide-encoding DNA abundance (4.5 h post-induction vs induction); higher = less antimicrobial activity (less host growth inhibition)
# condition-context: time post-induction: 4.5 h; library: site-saturation at positions 5, 18, 19, 20
property: shrunken log2 fold change
One number for each entry.

Solved cases below.
- RRIRMRPPRLPRPRPRPFHCPRP: 0.0959
- RRIRTRPPRLPRPRPRPHQIPRP: 0.269
- RRIRKRPPRLPRPRPRPSMPPRP: 0.0159
- RRIRVRPPRLPRPRPRPIHYPRP: -0.137
- RRIRPRPPRLPRPRPRPPIPPRP: 0.15
- RRIRHRPPRLPRPRPRPNSKPRP: -0.737
- RRIRCRPPRLPRPRPRPFPRPRP: 0.134
- RRIRIRPPRLPRPRPRPYFPPRP: -0.909
- RRIRHRPPRLPRPRPRPPGQPRP: 0.0303
- RRIRARPPRLPRPRPRPAHKPRP: 0.664

# batch size: 8; output shrunken log2 fold change per entry
1. RRIRKRPPRLPRPRPRPWKRPRP
2. RRIRNRPPRLPRPRPRPWVWPRP
3. RRIRSRPPRLPRPRPRPSGKPRP
4. RRIRYRPPRLPRPRPRPAMRPRP
5. RRIRYRPPRLPRPRPRPTHCPRP
6. RRIRCRPPRLPRPRPRPCQGPRP
7. RRIRPRPPRLPRPRPRPREDPRP
8. RRIRRRPPRLPRPRPRPHLRPRP

1: 0.024; 2: -0.115; 3: -0.202; 4: 0.372; 5: 0.0602; 6: -0.0713; 7: 0.134; 8: 0.298

# batch size: 3; output shrunken log2 fold change per entry
1. RRIRKRPPRLPRPRPRPKEMPRP
2. RRIRGRPPRLPRPRPRPTPWPRP
3. RRIRCRPPRLPRPRPRPGEHPRP

[0.682, 0.848, -0.0986]

---

# Test system: Escherichia coli TOP10
# experimental-details: shrunken log2 fold change of peptide-encoding DNA abundance (4.5 h post-induction vs induction); higher = less antimicrobial activity (less host growth inhibition)
# condition-context: time post-induction: 4.5 h; library: site-saturation at positions 5, 18, 19, 20
property: shrunken log2 fold change
Answers are plain numbers.

• RRIRQRPPRLPRPRPRPCMEPRP = -0.1
• RRIRMRPPRLPRPRPRPVHHPRP = 0.00757
• RRIRLRPPRLPRPRPRPKSYPRP = -0.592
• RRIRMRPPRLPRPRPRPWFTPRP = -0.263
• RRIRKRPPRLPRPRPRPMCDPRP = -0.0708
• RRIRMRPPRLPRPRPRPPLYPRP = 0.445

# batch size: 5; output shrunken log2 fold change per entry
1. RRIRPRPPRLPRPRPRPRTIPRP
2. RRIRKRPPRLPRPRPRPAQQPRP
3. RRIRPRPPRLPRPRPRPISDPRP
4. RRIRYRPPRLPRPRPRPHEHPRP
5. RRIRLRPPRLPRPRPRPEYIPRP

0.206
0.344
-0.507
-0.0681
-0.312

---

# System: Escherichia coli TOP10
# experimental-details: shrunken log2 fold change of peptide-encoding DNA abundance (4.5 h post-induction vs induction); higher = less antimicrobial activity (less host growth inhibition)
# condition-context: time post-induction: 4.5 h; library: site-saturation at positions 5, 18, 19, 20
Parameter threshold = 0.3. Response is t when shrunken log2 fold change meets or exceeds it, else f.

Reference set, count: 5
- RRIRKRPPRLPRPRPRPEMSPRP: t
- RRIRPRPPRLPRPRPRPSCFPRP: f
- RRIRSRPPRLPRPRPRPPHGPRP: f
- RRIRSRPPRLPRPRPRPWAYPRP: f
- RRIRWRPPRLPRPRPRPSHPPRP: f

Okay, now this sequence:
State whether the measured shrunken log2 fold change reaches 0.3, counting equality as reaching it, for RRIRMRPPRLPRPRPRPHLVPRP
f

---

# Tested on: Escherichia coli TOP10
# experimental-details: shrunken log2 fold change of peptide-encoding DNA abundance (4.5 h post-induction vs induction); higher = less antimicrobial activity (less host growth inhibition)
# condition-context: time post-induction: 4.5 h; library: site-saturation at positions 5, 18, 19, 20
property: shrunken log2 fold change
Numbers only.

Solved cases below.
• RRIRYRPPRLPRPRPRPWWRPRP = -0.0462
• RRIRFRPPRLPRPRPRPWIHPRP = -0.804
• RRIRHRPPRLPRPRPRPSRMPRP = -0.518
• RRIRIRPPRLPRPRPRPICVPRP = -0.181
• RRIRDRPPRLPRPRPRPPLVPRP = 0.194

# batch size: 3; output shrunken log2 fold change per entry
1. RRIRPRPPRLPRPRPRPWSRPRP
2. RRIRVRPPRLPRPRPRPRKRPRP
3. RRIRYRPPRLPRPRPRPQQAPRP

0.298
0.572
-0.0122

---

Kindly state shrunken log2 fold change for each of the entries shown.
# Test system: Escherichia coli TOP10
# experimental-details: shrunken log2 fold change of peptide-encoding DNA abundance (4.5 h post-induction vs induction); higher = less antimicrobial activity (less host growth inhibition)
# condition-context: time post-induction: 4.5 h; library: site-saturation at positions 5, 18, 19, 20
Give bare numbers.

Solved cases below.
* RRIRMRPPRLPRPRPRPPALPRP | 1.13
* RRIRKRPPRLPRPRPRPSSMPRP | -0.0241
* RRIRYRPPRLPRPRPRPHLLPRP | -0.515

# batch size: 7; output shrunken log2 fold change per entry
1. RRIRQRPPRLPRPRPRPDHWPRP
2. RRIRDRPPRLPRPRPRPCIVPRP
3. RRIRNRPPRLPRPRPRPFIAPRP
4. RRIRNRPPRLPRPRPRPIGLPRP
5. RRIRVRPPRLPRPRPRPCNLPRP
6. RRIRDRPPRLPRPRPRPQEFPRP
7. RRIRTRPPRLPRPRPRPMMKPRP

1: -0.368; 2: -0.0549; 3: -0.32; 4: -0.123; 5: -0.163; 6: -0.0529; 7: -0.11

# batch size: 8; output shrunken log2 fold change per entry
1. RRIRYRPPRLPRPRPRPEQLPRP
2. RRIRGRPPRLPRPRPRPKSPPRP
3. RRIRFRPPRLPRPRPRPTMHPRP
4. RRIRFRPPRLPRPRPRPTVVPRP
5. RRIRMRPPRLPRPRPRPSNMPRP
6. RRIRGRPPRLPRPRPRPNQVPRP
7. RRIRFRPPRLPRPRPRPDNVPRP
8. RRIRWRPPRLPRPRPRPYYPPRP

1. -0.0122
2. 0.677
3. -0.138
4. 0.174
5. -0.0931
6. 0.195
7. -0.336
8. -1.09

# batch size: 4; output shrunken log2 fold change per entry
1. RRIRNRPPRLPRPRPRPPPDPRP
2. RRIRHRPPRLPRPRPRPISDPRP
3. RRIRERPPRLPRPRPRPVEQPRP
4. RRIRLRPPRLPRPRPRPMIAPRP

1: 0.794; 2: -0.179; 3: -0.209; 4: -0.141

---

# System: Escherichia coli TOP10;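 note: peptides expressed intracellularly from a pBAD plasmid library in pooled LB shake-flask culture, induced with 0.3% L-arabinose, DNA abundance read by NGS, three biological replicates, DESeq2 with apeglm shrinkage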
# experimental-details: shrunken log2 fold change of peptide-encoding DNA abundance (4.5 h post-induction vs induction); higher = less antimicrobial activity (less host growth inhibition)
# condition-context: time post-induction: 4.5 h; library: site-saturation at positions 5, 18, 19, 20
property: shrunken log2 fold change
Numbers only.

- RRIRRRPPRLPRPRPRPAETPRP: -0.0645

# batch size: 4; output shrunken log2 fold change per entry
1. RRIRVRPPRLPRPRPRPLCIPRP
2. RRIRDRPPRLPRPRPRPAVTPRP
3. RRIRTRPPRLPRPRPRPTFCPRP
4. RRIRFRPPRLPRPRPRPSAWPRP

[-0.499, -0.0403, 0.147, 0.534]

# batch size: 8; output shrunken log2 fold change per entry
1. RRIRYRPPRLPRPRPRPNVQPRP
2. RRIRWRPPRLPRPRPRPEEMPRP
3. RRIRYRPPRLPRPRPRPYIDPRP
4. RRIRYRPPRLPRPRPRPHACPRP
5. RRIRGRPPRLPRPRPRPEMVPRP
6. RRIRERPPRLPRPRPRPPRMPRP
7. RRIRNRPPRLPRPRPRPNYAPRP
8. RRIRTRPPRLPRPRPRPTLMPRP

1: -0.0298; 2: 0.013; 3: -0.103; 4: 0.0039; 5: 2.43; 6: 0.027; 7: -0.178; 8: -0.142

# batch size: 5; output shrunken log2 fold change per entry
1. RRIRGRPPRLPRPRPRPQYAPRP
2. RRIRCRPPRLPRPRPRPMAEPRP
3. RRIRSRPPRLPRPRPRPKYHPRP
4. RRIRSRPPRLPRPRPRPCACPRP
5. RRIRDRPPRLPRPRPRPPPCPRP

1. 0.285
2. 0.331
3. -0.601
4. -0.0721
5. 0.443

Query: shrunken log2 fold change; subject: RRIRFRPPRLPRPRPRPSELPRP
-0.0817

Where these numbers come from: the supplement of paper PMC9112550
